Cited source: paper PMC12207370

Molecular target: biotinylated CD59 (Homo sapiens, UniProt P13987)
Construct: Recombinant soluble human CD59 with an additional C-terminal cysteine residue
Sequence (P13987 26-102 limits assumed): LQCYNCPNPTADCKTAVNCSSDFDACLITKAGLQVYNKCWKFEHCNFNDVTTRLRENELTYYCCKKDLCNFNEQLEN
Assay: mRNA-display cyclic peptide screen against CD59-biotin, NGS abundance after 6th selection round
Conditions: percentage of the pool averaged across the two sequencing samples, sheet R6
# Percentage Average binned as lower level = under 0.03%, middle level = from 0.03% up to 0.05%, upper level = 0.05% and over

Record excerpt, results attached:
{"Sequence record": "HVFGNRFFTRG", "Assigned class": "middle level"}
{"Sequence record": "SSWAQLPCRS", "Assigned class": "middle level"}
{"Sequence record": "HVFGNRSFTSG", "Assigned class": "lower level"}
{"Sequence record": "RIGTSTCPFKFS", "Assigned class": "lower level"}
{"Sequence record": "QWNRWYGMDEL", "Assigned class": "upper level"}
{"Sequence record": "CFSARATLDGGW", "Assigned class": "middle level"}

In: Which class does CYGGRTFVYAWS fall in?
Out: upper level

In: Dear colleague, I would appreciate it if you could identify the bin for STYNDFFRVPC and reply at your convenience.
Out: upper level

In: Band for the recorded Percentage Average of CFTQRIASGSK ?
Out: lower level
